# assay-system: human SLC6A19 (Homo sapiens, UniProt Q695T7)
# Construct: expressed in transfected cells
# Sequence (Q695T7 whole entry): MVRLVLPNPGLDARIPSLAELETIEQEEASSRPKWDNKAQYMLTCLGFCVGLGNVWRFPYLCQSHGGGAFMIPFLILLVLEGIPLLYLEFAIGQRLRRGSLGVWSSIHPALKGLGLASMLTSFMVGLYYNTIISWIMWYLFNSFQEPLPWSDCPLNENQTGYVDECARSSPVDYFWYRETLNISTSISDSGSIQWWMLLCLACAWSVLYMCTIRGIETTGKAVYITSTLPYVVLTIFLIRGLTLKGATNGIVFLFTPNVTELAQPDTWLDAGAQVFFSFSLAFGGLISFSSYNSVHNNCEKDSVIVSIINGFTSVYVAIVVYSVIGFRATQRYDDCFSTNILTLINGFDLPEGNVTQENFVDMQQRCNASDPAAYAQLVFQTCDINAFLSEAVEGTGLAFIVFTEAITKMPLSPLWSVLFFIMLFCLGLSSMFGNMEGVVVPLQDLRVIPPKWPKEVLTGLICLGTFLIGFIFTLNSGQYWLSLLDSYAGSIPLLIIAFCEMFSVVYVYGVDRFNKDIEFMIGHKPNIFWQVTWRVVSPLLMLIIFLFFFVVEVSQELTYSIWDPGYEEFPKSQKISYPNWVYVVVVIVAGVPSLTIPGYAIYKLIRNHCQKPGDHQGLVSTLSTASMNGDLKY
# Sequence (Q9HBJ8 15-222 partner): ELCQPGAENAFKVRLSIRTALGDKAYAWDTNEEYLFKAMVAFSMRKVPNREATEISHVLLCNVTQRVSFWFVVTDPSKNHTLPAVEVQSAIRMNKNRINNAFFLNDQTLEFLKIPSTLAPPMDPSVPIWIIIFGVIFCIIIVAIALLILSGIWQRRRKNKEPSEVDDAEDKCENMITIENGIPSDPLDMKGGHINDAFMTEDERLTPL
# assay-explanation: Example B2: 13C6,15N-isoleucine uptake, RapidFire mass spectrometry, in CHO cells with doxycycline-inducible expression of human SLC6A19 and TMEM27
# Type: cell-based
# measurement-parameters: read-out: SLC6A19_RapidFire Uptake Assay IC50
value-type: pIC50
pIC50 is a log-scale quantity: -log10 of the concentration expressed in molar.

Reference set (2 entries):
CC(=O)N1CCC[C@@H](N(C)C(=O)NCc2cc3cc(F)c(Cl)cc3[nH]2)C1 [Compound 164] :: 6.45
CN(C(=O)NCc1cc2cc(Cl)ccc2[nH]1)[C@@H]1CCCN(C(=O)c2nccs2)C1 [Compound 9] :: 5.27

Lookup result for CC(=O)N1CCC[C@@H](N(C(=O)NCc2cc3cc(Cl)ccc3[nH]2)C(C)C)C1 [Compound 221] ; measured pIC50: 5.34
